measured.target: T1, HLA-DP DPB1*04:01 (human)
T1 chain 1: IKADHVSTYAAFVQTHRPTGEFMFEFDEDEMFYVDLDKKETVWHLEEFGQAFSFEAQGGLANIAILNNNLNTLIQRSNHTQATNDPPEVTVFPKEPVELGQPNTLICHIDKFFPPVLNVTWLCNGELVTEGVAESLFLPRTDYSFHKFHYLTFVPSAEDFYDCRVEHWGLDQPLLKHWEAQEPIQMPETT
T1 chain 2: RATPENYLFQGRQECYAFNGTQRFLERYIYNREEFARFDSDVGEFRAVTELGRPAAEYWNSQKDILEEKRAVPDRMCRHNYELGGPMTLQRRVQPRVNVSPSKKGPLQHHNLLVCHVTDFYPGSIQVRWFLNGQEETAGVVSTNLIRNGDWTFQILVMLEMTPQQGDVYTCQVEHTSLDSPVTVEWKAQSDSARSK
protocol.summary: competition assay

- binder: "LIINWLQEALSSASL (agrees with the claims) [ApoB100 peptide 3563.0015]"
  units.of.measure: "nM"
  IC50: 6190
- binder: "TLTAFGFASADLIEI [ApoB100 peptide 3563.0005]"
  units.of.measure: "nM"
  IC50: 490
- binder: "LEVLNFDFQANAQLS (agrees with the claims) [ApoB100 peptide 3563.0017]"
  units.of.measure: "nM"
  IC50: 191
- binder: "YKKLRTSSFALNLPT [ApoB100 peptide 3563.0022]"
  units.of.measure: "nM"
  IC50: 2.1

Source of measurements: patent US20220259288A1
